Recorded measurements of Activity, one per entry
Tested on: BV-2
Test: Inhibition of LPS-induced NO production in mouse BV2 microglia cells assessed as nitrite levels at 100 uM relative to untreated control
Type: functional
Set-up: scale not given: the % may be the effect or the level left
Measured parameter: Activity (%)

compound="CCCC1c2cc(O)c(OC)cc2CCN1C(C)=O (stereo not drawn)" measured_parameter=Activity experimental_result=84
compound="COc1cc2c(cc1O)C(Cc1ccccc1)N(C(C)=O)CC2 (stereo not drawn)" measured_parameter=Activity experimental_result=96
compound="COc1cc2c(cc1O)C(C1CC1)N(C(C)=O)CC2 (stereo not drawn)" measured_parameter=Activity experimental_result=60
compound="COc1cc2c(cc1O)C(C1CCC1)N(C(C)=O)CC2 (stereo not drawn)" measured_parameter=Activity experimental_result=69
compound=COc1cc2c(cc1O)CN(CC1CCCCC1)CC2 measured_parameter=Activity experimental_result=63
compound=CCCCN1CCc2cc(OC)c(O)cc2C1 measured_parameter=Activity experimental_result=111
compound=CCCC(=O)N1CCc2cc(OC)c(O)cc2C1 measured_parameter=Activity experimental_result=74
compound=CCCN1CCc2cc(OC)c(O)cc2C1 measured_parameter=Activity experimental_result=82
compound=CCC(=O)N1CCc2cc(OC)c(O)cc2C1 measured_parameter=Activity experimental_result=36
compound="COc1cc2c(cc1O)C(c1ccccc1)N(C(C)=O)CC2 (stereo not drawn)" measured_parameter=Activity experimental_result=51
compound="COc1cc2c(cc1O)C(CC(C)C)N(C(C)=O)CC2 (stereo not drawn)" measured_parameter=Activity experimental_result=113
compound="COc1cc2c(cc1O)C(C)N(C(C)=O)CC2 (stereo not drawn)" measured_parameter=Activity experimental_result=40
compound=COc1cc2c(cc1O)CN(C(=O)CC(C)C)CC2 measured_parameter=Activity experimental_result=90
compound="COc1cc2c(cc1O)C(C(C)C)N(C(C)=O)CC2 (stereo not drawn)" measured_parameter=Activity experimental_result=39
compound=COc1cc2c(cc1O)CN(C(=O)C1CCCCC1)CC2 measured_parameter=Activity experimental_result=64
compound=COc1cc2c(cc1O)CN(C(C)=O)CC2 measured_parameter=Activity experimental_result=46
compound=COc1cc2c(cc1O)CN(C(=O)C(C)C)CC2 measured_parameter=Activity experimental_result=82
compound="CCC1c2cc(O)c(OC)cc2CCN1C(C)=O (stereo not drawn)" measured_parameter=Activity experimental_result=50

These entries and their values trace back to ChEMBL document CHEMBL1156698.
